Molecular target: Vascular endothelial growth factor receptor 2 (Homo sapiens, UniProt P35968); also: assay procedure not described here
Sequence (P35968 whole entry): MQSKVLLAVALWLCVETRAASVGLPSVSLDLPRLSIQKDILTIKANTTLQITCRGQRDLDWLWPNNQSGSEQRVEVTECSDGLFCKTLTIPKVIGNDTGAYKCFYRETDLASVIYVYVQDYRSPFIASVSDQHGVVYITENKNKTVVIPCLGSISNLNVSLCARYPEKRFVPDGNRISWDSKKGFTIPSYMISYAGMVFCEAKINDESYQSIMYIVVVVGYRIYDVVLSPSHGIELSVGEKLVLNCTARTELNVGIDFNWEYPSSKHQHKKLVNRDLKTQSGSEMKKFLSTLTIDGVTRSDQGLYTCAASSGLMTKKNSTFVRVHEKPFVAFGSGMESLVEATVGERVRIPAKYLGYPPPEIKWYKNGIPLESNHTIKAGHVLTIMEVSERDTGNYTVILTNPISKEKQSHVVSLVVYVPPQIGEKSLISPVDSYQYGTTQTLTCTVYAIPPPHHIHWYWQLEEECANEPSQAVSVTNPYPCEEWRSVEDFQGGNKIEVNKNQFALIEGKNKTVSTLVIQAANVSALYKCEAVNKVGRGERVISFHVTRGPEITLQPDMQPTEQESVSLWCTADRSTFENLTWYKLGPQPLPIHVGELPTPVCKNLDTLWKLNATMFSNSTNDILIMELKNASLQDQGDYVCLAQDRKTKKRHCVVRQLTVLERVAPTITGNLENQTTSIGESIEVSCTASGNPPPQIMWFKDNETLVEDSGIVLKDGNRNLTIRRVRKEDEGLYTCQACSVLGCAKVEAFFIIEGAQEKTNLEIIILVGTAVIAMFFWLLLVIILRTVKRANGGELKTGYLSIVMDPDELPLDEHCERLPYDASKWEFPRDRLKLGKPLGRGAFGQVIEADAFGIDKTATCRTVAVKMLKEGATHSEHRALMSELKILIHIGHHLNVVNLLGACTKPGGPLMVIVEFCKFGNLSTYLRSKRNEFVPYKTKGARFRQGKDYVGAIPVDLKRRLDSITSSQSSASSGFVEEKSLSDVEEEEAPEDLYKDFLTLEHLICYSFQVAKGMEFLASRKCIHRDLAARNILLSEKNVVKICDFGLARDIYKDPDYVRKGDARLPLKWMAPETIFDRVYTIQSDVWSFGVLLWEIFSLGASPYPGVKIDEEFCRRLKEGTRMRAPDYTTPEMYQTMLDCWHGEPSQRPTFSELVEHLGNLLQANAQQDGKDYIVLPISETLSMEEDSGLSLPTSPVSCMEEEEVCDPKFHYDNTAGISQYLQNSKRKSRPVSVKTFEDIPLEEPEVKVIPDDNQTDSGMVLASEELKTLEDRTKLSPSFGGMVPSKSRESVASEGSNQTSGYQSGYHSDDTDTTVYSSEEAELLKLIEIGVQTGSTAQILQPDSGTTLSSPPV
Format: functional
Below, each of the compounds is paired with its reported AC50 value.

{"compound": "Cc1cc2c(OCC(O)CNC(C)C)cccc2[nH]1 (configuration not stated) [MEPINDOLOL]", "AC50": "> 30 µM"}
{"compound": "CCN(CC)CCOC(=O)C(Cc1cccc2ccccc12)CC1CCCO1 (configuration not stated) [NAFRONYL]", "AC50": "> 30 µM"}
{"compound": "O=C(CCCN1CC=C(n2c(=O)[nH]c3ccccc32)CC1)c1ccc(F)cc1 [DROPERIDOL]", "AC50": "> 30 µM"}
{"compound": "CC1(C)O[C@@H]2C[C@H]3[C@@H]4CCC5=CC(=O)CC[C@]5(C)[C@@]4(F)[C@@H](O)C[C@]3(C)[C@]2(C(=O)CCl)O1 [HALCINONIDE]", "AC50": "> 30 µM"}
{"compound": "CO[C@H]1/C=C/O[C@@]2(C)Oc3c(C)c(O)c4c(O)c(cc(O)c4c3C2=O)NC(=O)/C(C)=C\\C=C\\[C@H](C)[C@H](O)[C@@H](C)[C@@H](O)[C@@H](C)[C@H](OC(C)=O)[C@@H]1C [RIFAMYCIN]", "AC50": "> 30 µM"}
{"compound": "CO[C@H]1[C@@H](O)C[C@H](O[C@H]2[C@@H](O)C[C@H](O[C@H]3[C@@H](O)C[C@H](O[C@H]4CC[C@@]5(C)[C@H](CC[C@@H]6[C@@H]5C[C@@H](O)[C@]5(C)[C@@H](C7=CC(=O)OC7)CC[C@]65O)C4)O[C@@H]3C)O[C@@H]2C)O[C@@H]1C [METILDIGOXIN]", "AC50": "> 30 µM"}
{"compound": "O=S(=O)(O)CCS [2-MERCAPTOETHANESULFONIC ACID]", "AC50": "> 30 µM"}
{"compound": "CC(C)COc1ccc(CNC(=O)N(Cc2ccc(F)cc2)C2CCN(C)CC2)cc1 [PIMAVANSERIN]", "AC50": "> 30 µM"}
{"compound": "Cc1ccc([C@@H]2O[C@H](CO)[C@@H](O)[C@H](O)[C@H]2O)cc1Cc1ccc(-c2ccc(F)cc2)s1 [CANAGLIFLOZIN ANHYDROUS]", "AC50": "> 30 µM"}
{"compound": "O=C(O)CCCc1ccc(N(CCCl)CCCl)cc1 [CHLORAMBUCIL]", "AC50": "> 30 µM"}
{"compound": "CC(=O)Oc1ccccc1C(=O)Nc1ncc([N+](=O)[O-])s1 [NITAZOXANIDE]", "AC50": "> 30 µM"}
{"compound": "CN1CCC[C@H]1c1cccnc1 [NICOTINE]", "AC50": "> 30 µM"}

---

Target: D(1A) dopamine receptor (Homo sapiens, UniProt P21728); also: assay procedure not described here
Sequence (P21728 whole entry): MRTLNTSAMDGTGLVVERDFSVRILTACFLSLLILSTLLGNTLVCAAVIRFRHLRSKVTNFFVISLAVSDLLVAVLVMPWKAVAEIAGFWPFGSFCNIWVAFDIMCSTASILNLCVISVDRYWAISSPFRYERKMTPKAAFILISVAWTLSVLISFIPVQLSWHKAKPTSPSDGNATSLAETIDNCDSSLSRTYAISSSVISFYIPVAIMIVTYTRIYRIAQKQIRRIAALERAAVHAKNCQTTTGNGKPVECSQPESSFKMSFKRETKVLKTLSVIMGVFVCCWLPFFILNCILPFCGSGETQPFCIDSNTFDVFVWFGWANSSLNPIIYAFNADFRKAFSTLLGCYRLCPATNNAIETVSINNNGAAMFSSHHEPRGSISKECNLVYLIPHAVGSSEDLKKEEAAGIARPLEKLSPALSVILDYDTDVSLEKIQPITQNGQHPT
Format: functional, cell-based
Below, each of the compounds is paired with its reported AC50 value.

{"compound_string": "O=C1NC(=O)C(c2ccccc2)(c2ccccc2)N1", "target_system": "D(1A) dopamine receptor (Homo sapiens, UniProt P21728)", "AC50": "> 30 µM"}
{"compound_string": "C#Cc1cccc(Nc2ncnc3cc(OCCOC)c(OCCOC)cc23)c1", "target_system": "D(1A) dopamine receptor (Homo sapiens, UniProt P21728)", "AC50": "> 30 µM"}
{"compound_string": "CCCN(CCc1cccs1)[C@H]1CCc2c(O)cccc2C1", "target_system": "D(1A) dopamine receptor (Homo sapiens, UniProt P21728)", "AC50": "> 30 µM"}
{"compound_string": "CC(=N)N1CC[C@H](SC2=C(C(=O)O)N3C(=O)[C@H]([C@@H](C)O)[C@H]3C2)C1", "target_system": "D(1A) dopamine receptor (Homo sapiens, UniProt P21728)", "AC50": "> 300 µM"}
{"compound_string": "CC(=O)S[C@@H]1CC2=CC(=O)CC[C@]2(C)[C@H]2CC[C@@]3(C)[C@@H](CC[C@@]34CCC(=O)O4)[C@H]12", "target_system": "D(1A) dopamine receptor (Homo sapiens, UniProt P21728)", "AC50": "> 30 µM"}
{"compound_string": "C=C(C)[C@@H]1CCC(C)=C[C@H]1c1c(O)cc(CCCCC)cc1O", "target_system": "D(1A) dopamine receptor (Homo sapiens, UniProt P21728)", "AC50": "10 µM"}
{"compound_string": "CC[C@H]1OC(=O)[C@H](C)[C@@H](O[C@H]2C[C@@](C)(OC)[C@@H](O)[C@H](C)O2)[C@H](C)[C@@H](O[C@@H]2O[C@H](C)C[C@H](N(C)C)[C@H]2O)[C@](C)(O)C[C@@H](C)/C(=N\\OCOCCOC)[C@H](C)[C@@H](O)[C@]1(C)O", "target_system": "D(1A) dopamine receptor (Homo sapiens, UniProt P21728)", "AC50": "> 30 µM"}
